B1: TRIM63 (parent)
chain: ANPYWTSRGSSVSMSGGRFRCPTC

# Variants of: B1
# test-summary: protein stability index of a GFP-peptide fusion (GPS, HEK-293T) (PSI 1-6); higher = more stable;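 note: lentivirally expressed fusions sorted by FACS into six bins by GFP to DsRed ratio, PSI derived from sequencing read proportions per bin multiplied by bin number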
# condition-context: c terminus: a fixed tail appended
# key: entry, value: protein stability index
Reply with the value as a number alone.

## Task # get_value(readout='protein stability index', item= ANPYWTSRGSSVSMSGGRFRFPTC [C21F] )
## Result 1.76

## Task # get_value(readout='protein stability index', item= ANPYWTSLGSSVSMSGGRFRCPTC [R8L] )
## Result 2.33
